test: Solubility of the compound in DMSO; type: physicochemical
propertyLabel: solubility

{"sampleSmiles": "O=C(NCCOCCO)c1cn(Cc2ccc(F)cc2)c2ccc([N+](=O)[O-])cc2c1=O", "result": "Insoluble"}
{"sampleSmiles": "O=C(NCCNCCO)c1cn(Cc2ccc(F)cc2)c2ccc([N+](=O)[O-])cc2c1=O", "result": "Insoluble"}
{"sampleSmiles": "O=C(NCCNCCO)c1cn(Cc2cccc(F)c2)c2ccc([N+](=O)[O-])cc2c1=O", "result": "Insoluble"}
{"sampleSmiles": "N#Cc1cccc(Cn2cc(C(=O)NCCOCCO)c(=O)c3cc([N+](=O)[O-])ccc32)c1", "result": "Insoluble"}
{"sampleSmiles": "N#Cc1cccc(Cn2cc(C(=O)NCCNCCO)c(=O)c3cc([N+](=O)[O-])ccc32)c1", "result": "Insoluble"}
{"sampleSmiles": "N#Cc1ccc(Cn2cc(C(=O)NCCNCCO)c(=O)c3cc([N+](=O)[O-])ccc32)cc1", "result": "Insoluble"}
{"sampleSmiles": "O=C(NCCN1CCOCC1)c1cn(Cc2cccc(Cl)c2)c2ccc([N+](=O)[O-])cc2c1=O", "result": "Insoluble"}
{"sampleSmiles": "N#Cc1ccc(Cn2cc(C(=O)NCCOCCO)c(=O)c3cc([N+](=O)[O-])ccc32)cc1", "result": "Insoluble"}
{"sampleSmiles": "O=C(NO)c1cn(Cc2cccc(F)c2)c2ccc([N+](=O)[O-])cc2c1=O", "result": "Insoluble"}
